Molecular target: human Claudin-6 (CLDN6) (human) (UniProt P56747)
Test: flow cytometry, UMUC4 cells (positive cell line); 2nd Ab only 1,114.73
Measured Property: flow cytometry signal at 1µg Ab/Sample
I only need the number, thanks.

Look over these answered cases.
[[record]]
binder = "CLDN6 ADC: AB3-7 conjugated to CL2A-SN38 (conventional) (antibody, V domains shown, antibody conjugated to CL2A-SN38, heterogeneous drug load; attachment residues not stated) VH: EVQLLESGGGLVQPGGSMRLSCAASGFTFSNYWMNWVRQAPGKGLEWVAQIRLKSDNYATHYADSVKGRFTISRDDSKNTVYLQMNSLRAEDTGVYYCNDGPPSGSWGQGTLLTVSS VL: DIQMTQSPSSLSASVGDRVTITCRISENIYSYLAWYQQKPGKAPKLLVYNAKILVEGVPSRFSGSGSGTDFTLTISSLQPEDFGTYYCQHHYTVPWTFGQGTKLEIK"
measured_property = "flow cytometry signal at 1µg Ab/Sample"
reading = 33800

[[record]]
binder = "CLDN6 ADC: AB3-7 conjugated to MC-VC-PAB-MMAE (D4 technology) (antibody, V domains shown, antibody conjugated to MC-VC-PAB-MMAE, mostly 4 drugs per antibody; attachment residues not stated) VH: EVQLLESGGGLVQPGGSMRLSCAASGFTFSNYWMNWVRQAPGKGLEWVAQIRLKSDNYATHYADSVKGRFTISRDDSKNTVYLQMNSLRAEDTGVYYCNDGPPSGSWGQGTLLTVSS VL: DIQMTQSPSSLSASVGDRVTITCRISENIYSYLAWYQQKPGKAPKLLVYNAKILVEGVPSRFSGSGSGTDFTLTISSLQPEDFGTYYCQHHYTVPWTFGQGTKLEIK"
measured_property = "flow cytometry signal at 1µg Ab/Sample"
reading = 26900

[[record]]
binder = "CLDN6 ADC: AB3-7 conjugated to CL2A-SN38 (D4 technology) (antibody, V domains shown, antibody conjugated to CL2A-SN38, mostly 4 drugs per antibody; attachment residues not stated) VH: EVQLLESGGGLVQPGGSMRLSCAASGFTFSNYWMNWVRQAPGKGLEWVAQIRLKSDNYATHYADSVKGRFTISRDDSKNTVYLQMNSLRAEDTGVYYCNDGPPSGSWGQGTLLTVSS VL: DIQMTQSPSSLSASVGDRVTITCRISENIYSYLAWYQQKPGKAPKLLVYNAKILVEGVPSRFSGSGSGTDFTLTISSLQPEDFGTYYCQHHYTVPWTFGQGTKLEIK"
measured_property = "flow cytometry signal at 1µg Ab/Sample"
reading = 34600

[[record]]
binder = "CLDN6 ADC: AB3-7 conjugated to MC-VC-PAB-MMAE (conventional) (antibody, V domains shown, antibody conjugated to MC-VC-PAB-MMAE, heterogeneous drug load; attachment residues not stated) VH: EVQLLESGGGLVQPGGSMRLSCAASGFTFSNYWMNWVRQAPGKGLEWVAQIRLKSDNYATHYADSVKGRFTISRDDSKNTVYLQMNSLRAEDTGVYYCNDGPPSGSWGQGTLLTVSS VL: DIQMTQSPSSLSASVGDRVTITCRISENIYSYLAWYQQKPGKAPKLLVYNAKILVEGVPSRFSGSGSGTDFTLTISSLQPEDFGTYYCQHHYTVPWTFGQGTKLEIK"
measured_property = "flow cytometry signal at 1µg Ab/Sample"
reading = 28800


Lab note: next binder to report on.
Look at this binder and give its reported flow cytometry signal at 1µg Ab/Sample. CLDN6 ADC: AB3-7 conjugated to MC-GGFG-MMAE (D4 technology) (antibody, V domains shown, antibody conjugated to MC-GGFG-MMAE, mostly 4 drugs per antibody; attachment residues not stated) VH: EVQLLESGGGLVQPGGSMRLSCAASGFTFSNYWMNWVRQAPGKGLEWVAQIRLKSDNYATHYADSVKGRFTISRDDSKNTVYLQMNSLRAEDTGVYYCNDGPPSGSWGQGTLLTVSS VL: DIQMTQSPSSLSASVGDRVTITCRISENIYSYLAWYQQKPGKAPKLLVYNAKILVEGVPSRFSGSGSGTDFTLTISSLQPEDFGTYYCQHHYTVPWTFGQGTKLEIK 31600

# credit: patent US20230049752A1
